- run_description: chemical genetic growth profiling, strain panel (AID 1159580);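 further: tested at 20 µM; growth read once vehicle control cultures reached saturation at 30 °C; 1 = growth at the plate median or of vehicle wells; lower values mean less growth of the strain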
- assay_setup: S. cerevisiae deletion strains, growth OD, locus YDR150W, strain NUM1, hits give low values
In all, about 5,500 compounds went through this assay and about 2,000 (36%) were called active. About 18% were inconclusive and are not listed. This is one part of the list. Where a SMILES comes first, the peptide text is derived from it.
readout_name: normalized growth

>>> experimental_value("NC(=O)N[C@@H]1O[C@H](CO)[C@@H](O)[C@H](O)[C@H]1O")
0.992
>>> experimental_value("Cc1cc2c3c(c1)c(O)cc(=O)n3CCC2")
1
>>> experimental_value("O=C(O)CCCCCCCC(=O)O")
0.974
>>> experimental_value("CC(=O)OCC(=O)[C@@]1(O)CCC2C3CCC4=CC(=O)C=CC4(C)C3[C@@H](O)C[C@@]21C (stereo partly drawn)")
1
>>> experimental_value("NC1(C(=O)O)CCC1")
1
>>> experimental_value("Clc1ccc(COC(Cn2ccnc2)c2ccc(Cl)cc2Cl)cc1 (stereo not drawn)")
0.055
>>> experimental_value("COC1=CC(=O)OC(CCc2ccc(OC)c(OC)c2)C1 (stereo not drawn)")
1.01
>>> experimental_value("NCCCC(=O)O")
1.01
>>> experimental_value("Clc1ccc(COC(Cn2ccnc2)c2ccc(Cl)cc2Cl)c(Cl)c1 (stereo not drawn)")
0.0575
>>> experimental_value("CC12CCC3C(CC[C@H]4CC5(CCC34C)OCCO5)C1CCC2O (stereo partly drawn)")
0.912
>>> experimental_value("O=C1NN(c2ccccc2)C(=S)Nc2ccccc21")
0.994
>>> experimental_value("CCCCCCCCCCCCCC(=O)OC1C(C)C2(O)C(C=C(CO)CC3(O)C(=O)C(C)=CC32)C2C(C)(C)C12OC(C)=O (stereo not drawn)")
1
>>> experimental_value("NC1(C(=O)O)CCCC1")
1.01
>>> experimental_value("CCOC(=O)CNc1ccc(Cl)c(Cl)c1")
0.967
>>> experimental_value("Cc1cc(Cl)ccc1Oc1ccc(N)cn1")
0.898
>>> experimental_value("CCCCCC(O)c1cccc(OCc2ccc3ccccc3n2)c1 (stereo not drawn)")
1
>>> experimental_value("COc1ccc(-c2nc(-c3ccc(-c4ccccc4)cc3)cs2)cc1")
1
>>> experimental_value("N.N.O=C(O)C1(C(=O)O)CCC1.[Pt+2]")
1
>>> experimental_value("CC(=O)NCCc1c[nH]c2ccc(O)cc12")
1.01
>>> experimental_value("COc1ccc2oc(-c3ccccc3)c(OC)c(=O)c2c1")
0.944
>>> experimental_value("O=c1cccc2n1CC1CC2CN2CCCC[C@@H]12 (stereo partly drawn)")
0.992
>>> experimental_value("NC(N)=NC(N)=Nc1ccccc1C(F)(F)F")
0.895
>>> experimental_value("O=C1c2ccccc2C2(c3ccccc3)NCCN12 (stereo not drawn)")
0.989
>>> experimental_value("c1ccc2c(CC3=NCCN3)cccc2c1")
1.01
>>> experimental_value("O=c1[nH]c2cc(C(F)(F)F)ccc2n1-c1cc(C(F)(F)F)ccc1O")
1.01
>>> experimental_value("COc1cc2nc(N3CC=[N+](C(=O)c4ccco4)CC3)nc(N)c2cc1OC")
1
>>> experimental_value("CC(=O)N[C@@H](CC(=O)O)C(=O)N[C@@H](CCC(=O)O)C(=O)O (Ac-Asp-Glu-OH)")
1.02
>>> experimental_value("COC(=O)/C(C)=C\\CC12OC(C)(C)C3CC(C=C4C(=O)c5c(OC)c6c(c(CC=C(C)C)c5OC431)OC(C)(CCC=C(C)C)C=C6)C2=O (stereo not drawn)")
1.01
